Data credit: paper PMC7351026

Give measured Specific gravity adjusted urinary level, 75 percentile for each item. Keep answers brief.
Assay: PFAS levels in urine samples of airport employees, specific-gravity adjusted (LC/MS/MS)
Type: in vivo, human
Conditions: 5th sampling (January 2019), count 12
Remember to put the unit after the number in your answer.

Data request: Answer with the recorded Specific gravity adjusted urinary level, 75 percentile for the compound listed here: O=S(=O)(O)C(F)(F)C(F)(F)C(F)(F)C(F)(F)C(F)(F)F [PFPeS, perfluoropentane sulfonic acid]
Data returned: 0.08 ng/mL

Data request: Answer with the recorded Specific gravity adjusted urinary level, 75 percentile for the compound listed here: O=S(=O)(O)C(F)(F)C(F)(F)C(F)(F)C(F)(F)C(F)(F)C(F)(F)F [PFHxS, perfluorohexane sulfonic acid]
Data returned: 0.11 ng/mL

Data request: Answer with the recorded Specific gravity adjusted urinary level, 75 percentile for the compound listed here: O=S(=O)(O)C(F)(F)C(F)(F)C(F)(F)C(F)(F)C(F)(F)C(F)(F)C(F)(F)C(F)(F)F [L-PFOS, linear perfluorooctane sulfonic acid]
Data returned: 0.01 ng/mL

Data request: Answer with the recorded Specific gravity adjusted urinary level, 75 percentile for the compound listed here: O=C(O)C(F)(F)C(F)(F)C(F)(F)C(F)(F)C(F)(F)C(F)(F)C(F)(F)F [PFOA, perfluorooctanoic acid]
Data returned: 0.04 ng/mL

Data request: Answer with the recorded Specific gravity adjusted urinary level, 75 percentile for the compound listed here: O=C(O)C(F)(F)C(F)(F)C(F)(F)C(F)(F)C(F)(F)C(F)(F)F [PFHpA, perfluoroheptanoic acid]
Data returned: 0.03 ng/mL

---

Assay: Individual serum elimination rate and half-life (linear regression per employee)
Settings: individual estimate, subject 15, 5 samples
Label rule, in plain words: Elimination rate of 2 yearly and up is Fulfilled, under 2 yearly is Not fulfilled.

Data request: Say whether O=S(=O)(O)C(F)(F)C(F)(F)C(F)(F)C(F)(F)C(F)(F)C(F)(F)F shows Elimination rate of 2 yearly or more.
Data returned: Not fulfilled

Data request: Say whether O=S(=O)(O)C(F)(F)C(F)(F)C(F)(F)C(F)(F)C(F)(F)C(F)(F)C(F)(F)F shows Elimination rate of 2 yearly or more.
Data returned: Not fulfilled

Data request: Say whether O=S(=O)(O)C(F)(F)C(F)(F)C(F)(F)C(F)(F)C(F)(F)C(F)(F)C(F)(F)C(F)(F)F shows Elimination rate of 2 yearly or more.
Data returned: Not fulfilled

Data request: Say whether O=S(=O)(O)C(F)(C(F)(F)F)C(F)(F)C(F)(F)C(F)(F)C(F)(F)C(F)(F)C(F)(F)F (stereo not drawn) [1m-PFOS, perfluoro-1-methylheptanesulfonate] shows Elimination rate of 2 yearly or more.
Data returned: Not fulfilled

Data request: Say whether O=C(O)C(F)(F)C(F)(F)C(F)(F)C(F)(F)C(F)(F)C(F)(F)F shows Elimination rate of 2 yearly or more.
Data returned: Fulfilled

Data request: Say whether O=S(=O)(O)C(F)(F)C(F)(F)C(F)(F)C(F)(F)F shows Elimination rate of 2 yearly or more.
Data returned: Fulfilled

Data request: Say whether O=C(O)C(F)(F)C(F)(F)C(F)(F)C(F)(F)C(F)(F)C(F)(F)C(F)(F)F shows Elimination rate of 2 yearly or more.
Data returned: Not fulfilled

Data request: Say whether O=C(O)C(F)(F)C(F)(F)C(F)(F)C(F)(F)C(F)(F)F shows Elimination rate of 2 yearly or more.
Data returned: Fulfilled

Data request: Say whether O=S(=O)(O)C(F)(F)C(F)(F)C(F)(F)C(F)(F)C(F)(F)F shows Elimination rate of 2 yearly or more.
Data returned: Fulfilled
